molecular target: ACAT1 C119 (P24752) (Homo sapiens, UniProt P24752); assay: Competitive isoTOP-ABPP, cell lysates; assay type: binding; details: 500 μm, in-vitro_ramos_231
Sequence (P24752 34-427): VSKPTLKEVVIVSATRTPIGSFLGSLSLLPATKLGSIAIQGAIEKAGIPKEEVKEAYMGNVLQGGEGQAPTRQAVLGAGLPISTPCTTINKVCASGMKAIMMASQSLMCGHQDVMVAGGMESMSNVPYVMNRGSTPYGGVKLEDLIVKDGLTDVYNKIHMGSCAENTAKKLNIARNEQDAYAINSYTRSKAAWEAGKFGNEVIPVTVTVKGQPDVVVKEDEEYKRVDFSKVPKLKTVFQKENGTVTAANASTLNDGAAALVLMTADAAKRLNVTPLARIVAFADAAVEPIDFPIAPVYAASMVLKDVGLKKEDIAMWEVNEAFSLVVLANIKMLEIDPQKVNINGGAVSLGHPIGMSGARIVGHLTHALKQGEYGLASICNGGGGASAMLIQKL
MEASUREMENT_KIND: isoTOP-ABPP reactivity ratio, P24752_C119

- Cc1ccc(C=C(C#N)C(=O)NCCN2CCOCC2)cc1: 1.0
- C=CC(=O)Nc1cc(C)c(Br)cc1C: 0.8
- C=CC(=O)N(Cc1cccnc1)c1cc(C(F)(F)F)cc(C(F)(F)F)c1: 1.3
- COC(=O)C1Cc2ccccc2CN1C(=O)CCl (stereo not drawn): 1.7
- O=C(CCl)Nc1ccccc1C1CCCCCC1: 0.9
- C=CC(=O)Nc1cc(F)c(N2CCN(C(=O)OC(C)(C)C)CC2)c(F)c1: 1.0
- O=C(CCl)N(Cc1ccc(F)cc1)C12CC3CC(CC(C3)C1)C2: 0.8
- CC(C)(C)c1cc(NC(=O)CCl)on1: 1.7
- O=C(CCl)Nc1cc(C(=O)O)cc(C(F)(F)F)c1: 1.2
